pKi: −log10 of the molar value.
// merged dataset of pKi values, system = Tyrosine-protein kinase Lck (Homo sapiens), multiple refs

Worked set:
MOLECULE	pKi
N#Cc1c(SCc2ccc(O)cc2)sc(-c2ccnc(Nc3ccccc3)n2)c1-c1ccccc1	> 7.00
Cc1cccc(C)c1Nc1nn(CCC(O)CO)c2nc(Nc3ccccc3)ncc12 (centres unmarked)	> 8.00
CSc1sc(-c2ccnc(Nc3cccc(OCCCO)c3)n2)c(-c2cccc(OCc3ccccc3)c2)c1C#N	6.00 to 7.00

Quick one: give me pKi for each item below, same order please.
1. Cc1onc(C2CCCCC2)c1-c1ccnc(Nc2cccc(OCCCN3CCC(O)CC3)c2)n1
2. Cc1onc(C2CCCCC2)c1-c1ccnc(Nc2cccc(OCCCN3CCCCC3)c2)n1
3. Cc1onc(C2CCCCC2)c1-c1ccnc(Nc2cccc(OCCCCN3CCCCC3)c2)n1
4. CSc1sc(-c2ccnc(Nc3cccc(OCCCN(C)CCO)c3)n2)c(C2CCCCC2)c1C#N
5. O=S(=O)(NCC(O)CO)c1ccc(-c2[nH]c3ncnc(NC[C@@H]4CCCO4)c3c2-c2ccccc2)cc1 (some centres unmarked)

Response:
> 7.00
> 7.00
> 7.00
> 7.00
> 8.00
